assay: in vitro; settings: human, hela cells, % viability
Property measured: viability at 28.5 h, 10 µM (%)
Answer in %, number only, no unit symbol.

# Compound, Units text, viability at 28.5 h, 10 µM
rows = [
    ("O=C(c1ccccc1F)N1CCC(n2c(=O)oc3ccccc32)CC1 [CBK284346]", "%", 90.1),
    ("CCCC(=O)N1CCC(c2nc3ccc(F)cc3cc2N)CC1 [CBK284655]", "%", 92.1),
    ("OCCn1ncc2c(NCc3ccc(-n4cccn4)nc3)ncnc21 [CBK306326]", "%", 87.8),
    ("Cc1ccc(C(=O)NC(Cc2cccs2)c2ccccn2)c(=O)[nH]1 (stereo not shown) [CBK285210]", "%", 89.8),
    ("COCCNC(=O)c1cc2n(n1)C(C(F)(F)F)CC(c1cccs1)N2 (stereo not shown) [CBK307614]", "%", 113),
]

Consider the compound O=C1CCCN1c1ccc(S(=O)(=O)N(c2ccccc2)C2CCNCC2)cc1 [CBK165122T] and give its recorded viability at 28.5 h, 10 µM.
109

Item C[C@@H](Nc1nc(-c2cccc3cccnc23)cnc1N)c1ccccc1 [CBK063784] : provide viability at 28.5 h, 10 µM
90

Hello, please tell me recorded viability at 28.5 h, 10 µM for this one: Cc1nccn1CCCNC(=O)c1ccc(N2CCCC2)cc1 [CBK281589]
81.6

Please supply the value of reported viability at 28.5 h, 10 µM for the item C=CCN1C(=O)CC2(C1=O)C(=O)N(CCn1cnc3c1c(=O)n(C)c(=O)n3C)c1ccc(Cl)cc12 (stereo not shown) [CBK075410]
94.8

Quick one: give measured viability at 28.5 h, 10 µM for O=C(O)CC(CP(c1ccccc1)c1ccccc1)C(=O)O (stereo not shown) [CBK260931]
77.6

Query viability at 28.5 h, 10 µM for COc1cc(/C=C2/C(=O)N(c3nnn[nH]3)N=C2C)ccc1OC(=O)c1cccs1 [CBK266641]
112

Determine its reported viability at 28.5 h, 10 µM: CCN(CC)C(=O)CNS(=O)(=O)c1ccc(OC)c(OC)c1 [CBK034499]
103

Let me know recorded viability at 28.5 h, 10 µM for O=C(NCCOc1ccccc1)N1CCN(Cc2ccccc2)CC1 [CBK155652] , thanks.
93.3

Give the measured viability at 28.5 h, 10 µM for CCCNC(=O)NC1CC(C)(C)Cc2nc(N3CCOCC3)ncc21 (stereo not shown) [CBK307232]
85.7

Output measured viability at 28.5 h, 10 µM for this item: C=CCOc1ccc(-c2nn(-c3ccccc3)cc2/C=C2/SC(=S)N(CC(=O)O)C2=O)c(C)c1 [CBK265062]
95.8

Look up and report measured viability at 28.5 h, 10 µM for this entry: CN(C)C(=O)CN1CCC2(CC1)CN(S(C)(=O)=O)c1ccccc12 [CBK126686]
97.7

Input N#Cc1cn(Cc2ccco2)c(=O)[nH]c1=O [CBK010407] , output reported viability at 28.5 h, 10 µM.
101

Name the recorded viability at 28.5 h, 10 µM of the item O=C1NC2(CCCN(C(=O)c3cccs3)C2)Oc2ccccc21 (stereo not shown) [CBK284799] in your answer.
93

// Input: O=C(O)CCc1ccc(-c2ccc(F)cc2)n1-c1cc(Cl)ccc1O [CBK131891] . Output its viability at 28.5 h, 10 µM only.
92

---

In this section we review reported viability at 28.5 h, 10 µM values for a set of compounds.
assay: in vitro; conditions: human, hela cells, % viability
Numbers only here, please. The scale is %.

# Compound, Units text, Value measured
data = [
    ("Cc1nn(C)c(Cl)c1S(=O)(=O)Nc1cccc(-c2cnco2)c1", "%", 78.8),
]

Answer with reported viability at 28.5 h, 10 µM of CCc1ccc(NC(=O)CNc2cc(C)ccc2OC)cc1
107

Retrieve viability at 28.5 h, 10 µM measured for Cc1nc(C)c(C(C)NCc2c(C(C)C)nn(C)c2N(C)C)s1 (stereo not shown) and print it.
74.3

---

experiment: in vitro; conditions: human, hela cells, % viability
Lab note - cut at 90% for viability at 28.5 h, 10 µM: yes if strictly below, no if not.

Record excerpt, results attached:
# Compound, Classification
data = [
    ("Cc1ccc(C2(CN3CCN(CC4CCOC4)CC3)CC2)cc1 (stereo not shown)", "yes"),
    ("c1ccc(-c2csc(Nc3cccnc3)n2)nc1", "no"),
]

Given the entry C=Cn1ncc(CN(CCCn2ccnc2)CC2CC=CCC2)c1C (stereo not shown) , would its reported viability at 28.5 h, 10 µM be below 90%?
no

Say whether its viability at 28.5 h, 10 µM is strictly beneath 90%. Entry: Cc1cc(NC(=O)COc2ccc(Cl)cc2)nc2c1c(=O)oc1ccccc12
no

Here's an entry: Cc1sc2ncnc(NCCOCCO)c2c1C . Is its viability at 28.5 h, 10 µM below 90%?
no

Problem: For the compound COc1ccc(OC)c(C(C)NC(=O)C2CCN(CCc3c[nH]c4ccccc34)CC2)c1 (stereo not shown) , is viability at 28.5 h, 10 µM under 90%?
no

---

Catalogue of viability at 28.5 h, 10 µM values
test: in vitro; conditions: human, hela cells, % viability
Return type: number; implicit unit %.

# return recorded viability at 28.5 h, 10 µM for input COC(=O)CN1N=C(C(C)(C)C)Cn2c(cc3sccc32)C1=O
83.3

Please indicate viability at 28.5 h, 10 µM recorded for COc1cc2c(cc1OC)CN(Cc1nc3ccccc3[nH]1)CC2
91

Item Cc1cc(C(=O)NC(C)Cn2nc(C)cc2C)c2cccc(C)c2n1 (stereo not shown) : provide viability at 28.5 h, 10 µM
91.4

---

assay: in vitro; settings: human, hela cells, % viability
Property measured: viability at 28.5 h, 10 µM (%)
Write the value in % as a bare number.

# Compound, viability at 28.5 h, 10 µM (%)
data = [
    ("O=C(COc1ccc2ccccc2c1)Nc1ccc(Cl)cc1Cl", 106),
    ("COc1cccc(C(=O)N2CCCC(c3cc4ncccc4[nH]3)C2)c1 (centres unmarked)", 104),
    ("CC(=O)Nc1ccc(S(=O)(=O)N(C)c2ccccn2)cc1Cl", 94.5),
]

Answer with the recorded viability at 28.5 h, 10 µM for the compound listed here: CCn1c(CN2CC(n3nc(C)cc3C)C2)nc2c(F)cccc21
82

Using the record for Cc1ccc2[nH]c(Cc3ccc(NC(=O)c4cc(=O)n(C)c5ccccc45)cc3)nc2c1 , state its measured viability at 28.5 h, 10 µM.
98.5

Report viability at 28.5 h, 10 µM, nothing else, for this compound: COc1cccc(CC(=O)N(CCC#N)Cc2ccco2)c1
92.5

Give me measured viability at 28.5 h, 10 µM, please, for this compound: COc1ccc(N2CCN(c3nccnc3-c3ccc(C(C)=O)s3)CC2)cc1OC
109

Entry Cn1cc(CCO)c2ccccc21 needs its viability at 28.5 h, 10 µM filled in; supply it.
109

For O=C1CSC(=O)N1CNc1ccc(Br)cc1 , write its viability at 28.5 h, 10 µM.
90.2

Input COc1ccc(-c2nc(-c3ccc(C(=O)N4CCOCC4)cc3)cnc2N)cc1 , output reported viability at 28.5 h, 10 µM.
108

Supply reported viability at 28.5 h, 10 µM belonging to this compound: CC(C)C(=O)NC(=S)Nc1ccc2oc(-c3ccncc3)nc2c1
96.4

Return value of viability at 28.5 h, 10 µM for input CC(OC(=O)C1CCCCC1)c1nc2ccccc2[nH]1 (centres unmarked) , no commentary.
107

Give the measured viability at 28.5 h, 10 µM for O=C(CCn1c(C(F)F)cc2cccnc21)NC1CCCCC1
92.1

Given Cc1ccc2nc(-c3ccncc3)cc(C(=O)N3CCN(C4CCCCC4)CC3)c2c1 , respond with its viability at 28.5 h, 10 µM.
96.4

Look up viability at 28.5 h, 10 µM of Cc1ccc(C2CCCN2C(=O)c2ccc(=O)n(CC(=O)Nc3ccc(F)cc3)c2)cc1C (centres unmarked) and report it.
107

Retrieve viability at 28.5 h, 10 µM measured for O=C(Cn1cnc2c(cnn2-c2ccccc2)c1=O)NCc1ccco1 and print it.
101

Name the recorded viability at 28.5 h, 10 µM of the compound listed here: COc1ccc(CCCC(=O)Nc2ccc(N3CCNCC3)nc2)cc1OC [CBK028272T]
82.4

Fill in viability at 28.5 h, 10 µM for record COC(=O)CSc1nnc(CSc2cc(C)nc(N3CCOCC3)n2)o1
96.1

Return reported viability at 28.5 h, 10 µM. Input compound: NC(=O)CSc1nnc(-c2cccnc2)n1Cc1ccccc1
99.2

Tell me viability at 28.5 h, 10 µM reported for CS(=O)(=O)N(CC(=O)Nc1ccccc1C(F)(F)F)Cc1ccc(Cl)cc1
108
